# study system: CDK12/CycK complex (Homo sapiens)
# Sequence (Q9NYV4 whole entry, species assumed): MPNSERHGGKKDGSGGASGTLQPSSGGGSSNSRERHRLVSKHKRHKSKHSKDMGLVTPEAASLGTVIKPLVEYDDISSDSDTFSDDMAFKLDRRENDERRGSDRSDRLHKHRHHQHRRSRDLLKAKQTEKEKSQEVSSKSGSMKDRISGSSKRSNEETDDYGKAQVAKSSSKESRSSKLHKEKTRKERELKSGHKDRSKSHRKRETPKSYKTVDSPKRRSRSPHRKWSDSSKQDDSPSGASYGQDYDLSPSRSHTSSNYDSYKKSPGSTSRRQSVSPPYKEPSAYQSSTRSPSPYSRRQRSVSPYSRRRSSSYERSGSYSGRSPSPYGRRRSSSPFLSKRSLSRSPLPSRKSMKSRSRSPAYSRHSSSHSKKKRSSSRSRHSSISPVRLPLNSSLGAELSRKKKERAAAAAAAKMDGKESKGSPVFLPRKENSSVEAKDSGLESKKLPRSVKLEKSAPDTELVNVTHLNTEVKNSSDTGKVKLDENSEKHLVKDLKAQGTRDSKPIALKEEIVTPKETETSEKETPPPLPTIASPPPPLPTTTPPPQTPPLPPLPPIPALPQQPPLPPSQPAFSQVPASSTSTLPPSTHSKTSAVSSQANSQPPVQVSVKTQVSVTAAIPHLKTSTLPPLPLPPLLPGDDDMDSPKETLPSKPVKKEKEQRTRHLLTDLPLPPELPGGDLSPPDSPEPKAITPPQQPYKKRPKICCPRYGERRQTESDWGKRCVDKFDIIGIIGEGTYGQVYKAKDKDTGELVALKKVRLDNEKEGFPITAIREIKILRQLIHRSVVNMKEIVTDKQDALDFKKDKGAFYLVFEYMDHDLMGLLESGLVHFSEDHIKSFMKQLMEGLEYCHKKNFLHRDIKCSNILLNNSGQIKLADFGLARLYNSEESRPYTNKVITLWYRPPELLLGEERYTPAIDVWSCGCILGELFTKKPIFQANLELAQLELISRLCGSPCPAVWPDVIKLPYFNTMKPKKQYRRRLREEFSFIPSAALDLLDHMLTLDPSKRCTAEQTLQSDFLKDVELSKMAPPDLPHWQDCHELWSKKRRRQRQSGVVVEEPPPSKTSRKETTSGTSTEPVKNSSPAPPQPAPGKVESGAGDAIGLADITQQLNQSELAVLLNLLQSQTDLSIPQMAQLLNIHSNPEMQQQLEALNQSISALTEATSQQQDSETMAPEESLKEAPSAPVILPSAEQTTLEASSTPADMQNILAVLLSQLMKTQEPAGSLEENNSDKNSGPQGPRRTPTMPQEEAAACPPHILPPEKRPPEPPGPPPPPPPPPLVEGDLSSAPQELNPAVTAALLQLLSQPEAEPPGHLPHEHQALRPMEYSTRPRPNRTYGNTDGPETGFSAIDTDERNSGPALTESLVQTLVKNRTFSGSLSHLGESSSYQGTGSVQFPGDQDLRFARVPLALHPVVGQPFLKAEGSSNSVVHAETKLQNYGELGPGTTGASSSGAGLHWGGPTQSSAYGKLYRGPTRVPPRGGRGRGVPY
# Sequence (O75909 whole entry partner, species assumed): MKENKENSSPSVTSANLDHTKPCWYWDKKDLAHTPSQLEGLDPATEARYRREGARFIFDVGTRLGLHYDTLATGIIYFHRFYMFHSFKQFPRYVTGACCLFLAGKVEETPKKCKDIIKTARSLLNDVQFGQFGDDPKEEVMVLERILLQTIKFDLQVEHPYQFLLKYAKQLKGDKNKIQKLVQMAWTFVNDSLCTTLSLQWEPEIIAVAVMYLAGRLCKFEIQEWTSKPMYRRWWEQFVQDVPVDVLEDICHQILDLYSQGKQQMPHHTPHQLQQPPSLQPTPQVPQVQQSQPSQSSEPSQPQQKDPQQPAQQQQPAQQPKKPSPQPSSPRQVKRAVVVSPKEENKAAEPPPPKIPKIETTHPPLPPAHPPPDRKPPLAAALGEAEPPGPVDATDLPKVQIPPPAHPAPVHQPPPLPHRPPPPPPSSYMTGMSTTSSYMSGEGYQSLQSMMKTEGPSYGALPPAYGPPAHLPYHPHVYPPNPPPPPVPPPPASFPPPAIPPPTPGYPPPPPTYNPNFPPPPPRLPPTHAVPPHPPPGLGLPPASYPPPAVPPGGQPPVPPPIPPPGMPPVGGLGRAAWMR
# assay: Measurement of CDK12 inhibitory activity by binding assay (BODIPY-FL labeled AT-7519 high concentration conditions, 1320 nM)
# conditions: inhibitory rate against CDK12 at 1 μM test compound, 1320 nM BODIPY-FL-labeled AT-7519, 8 nM CDK12/CycK
Mark Satisfied for reported inhibition at 1 µM of 90% or greater; mark Not satisfied for anything smaller.

1) COc1ncc(-c2cnc(N(C(=O)NCC(F)(F)F)[C@H]3CC[C@H](Nc4ncc(C(F)(F)F)c(-c5n[nH]cc5Cl)n4)CC3)cn2)cn1 :: Not satisfied
2) CCNC(=O)N(c1cnc(-c2cnc(OC)nc2)cn1)[C@H]1CC[C@H](Nc2ncc(C(F)(F)F)c(-c3cncc(S(C)(=O)=O)c3)n2)CC1 :: Satisfied
3) COc1ncc(-c2ccc(N(C(=O)NCC(F)F)[C@H]3CC[C@H](Nc4ncc(C(F)(F)F)c(-c5n[nH]cc5Cl)n4)CC3)nc2)cn1 :: Satisfied
4) COc1ncc(-c2cnc(N(C(=O)OCC(C)(C)O)[C@H]3CC[C@H](Nc4ncc(C(F)(F)F)c(-c5n[nH]cc5Cl)n4)CC3)cn2)cn1 :: Not satisfied
5) COc1ncc(-c2cnc(N(C(=O)NCC(F)F)[C@H]3CC[C@H](Nc4ncc(C(F)(F)F)c(-c5n[nH]c(C)c5Cl)n4)CC3)cn2)cn1 :: Satisfied
6) COc1ncc(-c2ccc(N(C(=O)NCC(F)F)[C@H]3CC[C@H](Nc4ncc(C(F)(F)F)c(-c5cncc(S(C)(=O)=O)c5)n4)CC3)nc2)cn1 :: Not satisfied
